Source listed as patent US9422263B2.

# Test: Caco-2 permeability assay
# Type: in vitro ADME
# Test Parameters: human, apical to basolateral, 2 h at 37° C., Table 3, read-out: Caco-2 permeability PappA-B
Outcome Measure: Papp at 2 h, 2 μM (nm/s)

Worked examples follow.
>>> endpoint_result("Cc1n[nH]c2cc(F)c(C3C(C#N)=C(C(F)F)NC(C(F)F)=C3C#N)cc12")
271
>>> endpoint_result("CC1=C(C#N)C(c2ccc3[nH]nc(C)c3c2)C(C#N)=C(C(F)F)N1 (single isomer, unassigned)")
164
>>> endpoint_result("CC1=C(C#N)C(c2cc3c(C)n[nH]c3cc2F)C(C#N)=C(C(F)(F)F)N1 (single isomer, unassigned)")
187
>>> endpoint_result("CC1=C(C#N)C(c2cc3cn[nH]c3cc2F)C(C#N)=C(C(F)(F)F)N1 (racemic)")
176
>>> endpoint_result("CC1=C(C#N)C(c2ccc3[nH]nc(C)c3c2)C(C#N)=C(C(F)(F)F)N1 (single isomer, unassigned)")
311
>>> endpoint_result("N#CC1=C(C(F)F)NC(C(F)F)=C(C#N)C1c1cc2cn[nH]c2cc1F")
169

a: Cc1n[nH]c2ccc(C3C(C#N)=C(C(F)F)NC(C(F)F)=C3C#N)cc12
b: CC1=C(C#N)C(c2cc3c(C)n[nH]c3cc2F)C(C#N)=C(C(F)F)N1 (racemic)
Query block: Of a and b , whose reported Papp at 2 h, 2 μM is the larger number? Output the label that corresponds to your choice.
Result block: a

====

# Test: Pharmacokinetics after peroral administration of test compounds
# Format: in vivo, rat
# Test Parameters: rat p.o.; fabs,calc=[F/Fmax,calc]*100
Outcome Measure: Fraction absorbed fabs, calc (%)

>>> endpoint_result("CC1=C(C#N)C(c2cc3cn[nH]c3cc2F)C(C#N)=C(C(F)(F)F)N1 (racemic) [Example 19]")
84

A: Cc1n[nH]c2ccc(C3C(C#N)=C(C(F)F)NC(C(F)F)=C3C#N)cc12 [Example 13]
B: CC1=C(C#N)C(c2cc3c(C)n[nH]c3cc2F)C(C#N)=C(C(F)F)N1 (racemic) [Example 7]
Query block: Kindly identify which of A and B has the larger recorded Fraction absorbed fabs, calc value. Let me know the label of the one you choose.
Result block: B
(B: 109%, A: 73%)

====

# Assayed System: Recombinant human c-Met protein (Homo sapiens (Human))
# Sequence (P08581 25-1390): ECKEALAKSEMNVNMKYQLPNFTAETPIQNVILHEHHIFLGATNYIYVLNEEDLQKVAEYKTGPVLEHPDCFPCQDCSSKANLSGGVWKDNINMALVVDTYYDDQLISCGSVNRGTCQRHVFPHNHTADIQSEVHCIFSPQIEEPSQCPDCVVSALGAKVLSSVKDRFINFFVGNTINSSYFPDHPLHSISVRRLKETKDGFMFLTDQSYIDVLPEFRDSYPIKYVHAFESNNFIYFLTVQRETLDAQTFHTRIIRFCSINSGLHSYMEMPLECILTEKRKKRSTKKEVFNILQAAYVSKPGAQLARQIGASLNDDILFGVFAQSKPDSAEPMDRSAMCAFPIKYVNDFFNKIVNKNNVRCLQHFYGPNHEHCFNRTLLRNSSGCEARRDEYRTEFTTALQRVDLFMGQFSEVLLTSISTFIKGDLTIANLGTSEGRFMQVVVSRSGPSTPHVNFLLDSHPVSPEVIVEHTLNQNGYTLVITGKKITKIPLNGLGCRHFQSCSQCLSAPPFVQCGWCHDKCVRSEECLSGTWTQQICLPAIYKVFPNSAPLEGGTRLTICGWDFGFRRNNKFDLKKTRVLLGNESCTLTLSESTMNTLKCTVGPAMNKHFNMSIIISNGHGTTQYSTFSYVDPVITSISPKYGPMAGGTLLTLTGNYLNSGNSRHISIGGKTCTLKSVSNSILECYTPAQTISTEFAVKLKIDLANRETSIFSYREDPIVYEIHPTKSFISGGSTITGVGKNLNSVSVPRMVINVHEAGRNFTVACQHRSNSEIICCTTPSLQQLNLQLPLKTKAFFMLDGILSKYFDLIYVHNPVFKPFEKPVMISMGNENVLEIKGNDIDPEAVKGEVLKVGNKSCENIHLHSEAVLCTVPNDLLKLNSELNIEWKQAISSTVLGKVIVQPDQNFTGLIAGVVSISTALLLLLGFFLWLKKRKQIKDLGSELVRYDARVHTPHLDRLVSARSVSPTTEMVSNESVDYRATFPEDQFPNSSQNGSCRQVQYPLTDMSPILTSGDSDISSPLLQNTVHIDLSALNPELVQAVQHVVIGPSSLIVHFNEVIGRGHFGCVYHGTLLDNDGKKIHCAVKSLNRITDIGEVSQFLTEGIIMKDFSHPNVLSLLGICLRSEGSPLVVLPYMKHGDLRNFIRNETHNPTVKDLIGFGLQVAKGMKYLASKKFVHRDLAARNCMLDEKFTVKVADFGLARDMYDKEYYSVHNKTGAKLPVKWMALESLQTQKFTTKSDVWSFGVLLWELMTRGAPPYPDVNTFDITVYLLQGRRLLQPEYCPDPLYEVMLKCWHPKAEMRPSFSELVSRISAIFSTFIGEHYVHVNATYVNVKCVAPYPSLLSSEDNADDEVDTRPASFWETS
# Test: c-Met receptor tyrosine kinase activity assay (NADH read-out)
# Test Parameters: ATP 30 μM, c-Met 30 nM
pIC50: −log10 of the molar value.
Outcome Measure: pIC50

Some compounds with known pIC50 results, for comparison:
>>> endpoint_result("N#CC1=C(C(F)F)NC(C(F)F)=C(C#N)C1c1ccc2[nH]ncc2c1 [Example 24]")
7.55
>>> endpoint_result("Cc1n[nH]c2cc(F)c(C3C(C#N)=C(C(F)F)NC(C(F)F)=C3C#N)cc12 [Example 14]")
7.59

a: CC1=C(C#N)C(c2ccc3[nH]ncc3c2)C(C#N)=C(C(F)(F)F)N1 (racemic) [Example 20]
b: CC1=C(C#N)C(c2ccc3[nH]nc(C)c3c2)C(C#N)=C(C(F)F)N1 (single isomer, unassigned) [Example 2]
Query block: Sort a and b by pIC50 descending and give the first. Output the label that corresponds to your choice.
Result block: b

====

# Test: Pharmacokinetics after intravenous administration of test compounds
# Format: in vivo, rat
# Test Parameters: male Wistar rats, i.v.; total blood clearance
Outcome Measure: in vivo PK, rat i.v. CLblood (mL/min/kg)

Use these answered entries as a reference point.
>>> endpoint_result("N#CC1=C(C(F)F)NC(C(F)F)=C(C#N)C1c1cc2cn[nH]c2cc1F [Example 15]")
3.83
>>> endpoint_result("Cc1n[nH]c2cc(F)c(C3C(C#N)=C(C(F)F)NC(C(F)F)=C3C#N)cc12 [Example 14]")
4.67
>>> endpoint_result("CC1=C(C#N)C(c2ccc3[nH]nc(C)c3c2)C(C#N)=C(C(F)(F)F)N1 (single isomer, unassigned) [Example 6]")
28

a: Cc1n[nH]c2ccc(C3C(C#N)=C(C(F)F)NC(C(F)F)=C3C#N)cc12 [Example 13]
b: CC1=C(C#N)C(c2cc3cn[nH]c3cc2F)C(C#N)=C(C(F)(F)F)N1 (racemic) [Example 19]
Query block: Between a and b , which one shows the larger in vivo PK, rat i.v. CLblood value? // respond with label for picked entry
Result block: b

====

# Assayed System: Recombinant human c-Met protein (Homo sapiens (Human))
# Test: c-Met receptor tyrosine kinase activity assay (NADH read-out)
# Test Parameters: ATP 30 μM, c-Met 30 nM
pIC50: −log10 of the molar value.
Outcome Measure: pIC50

Examples with answers:
>>> endpoint_result("CC1=C(C#N)C(c2ccc3[nH]nc(C)c3c2)C(C#N)=C(C(F)(F)F)N1C (single isomer, unassigned) [Example 43]")
8.05
>>> endpoint_result("CC1=C(C#N)C(c2ccc3[nH]nc(C)c3c2)C(C#N)=C(C(F)F)N1 (single isomer, unassigned) [Example 3]")
8.22
>>> endpoint_result("CC1=C(C#N)C(c2cc3cn[nH]c3cc2F)C(C#N)=C(C(F)F)N1 (single isomer, unassigned) [Example 17]")
7.96
>>> endpoint_result("CC1=C(C#N)C(c2ccc3[nH]nc(C)c3c2)C(C#N)=C(C(F)(F)F)N1 (single isomer, unassigned) [Example 5]")
7.92
>>> endpoint_result("CC1=C(C#N)C(c2ccc3[nH]nc(C)c3c2)C(C#N)=C(C(F)(F)F)N1 (single isomer, unassigned) [Example 6]")
7.92

I: CC1=C(C#N)C(c2ccc3[nH]nc(C)c3c2)C(C#N)=C(C(F)(F)F)N1C (single isomer, unassigned) [Example 44]
II: CCC(F)(F)C1=C(C#N)C(c2ccc3[nH]nc(C)c3c2)C(C#N)=C(C)N1 (racemic) [Example 30]
Query block: Which one would you say has the larger pIC50 value: I , or II ? To answer, give the label that identifies your chosen option.
Result block: I

====

# Test: Caco-2 permeability assay
# Format: in vitro ADME
# Test Parameters: human, apical to basolateral, 2 h at 37° C., Table 4, read-out: Caco-2 permeability PappA-B
Outcome Measure: Papp at 2 h, 2 μM (×10⁻⁶ cm/s)

Observe how each entry below is paired with its result.
>>> endpoint_result("CCc1n[nH]c2ccc(C3C(C#N)=C(C(F)F)NC(C(F)F)=C3C#N)cc12")
29
>>> endpoint_result("CCC(F)(F)C1=C(C#N)C(c2ccc3[nH]nc(C)c3c2)C(C#N)=C(C)N1 (racemic)")
22
>>> endpoint_result("CC1=C(C#N)C(c2cc3cn[nH]c3cc2F)C(C#N)=C(C(F)F)N1 (racemic)")
22.6
>>> endpoint_result("CC1=C(C#N)C(c2ccc3[nH]nc(C)c3c2)C(C#N)=C(C(F)(F)F)N1C (racemic)")
38.8
>>> endpoint_result("N#CC1=C(C(F)F)NC(C(F)F)=C(C#N)C1c1ccc2[nH]ncc2c1")
20.2

A: Cc1n[nH]c2ccc(C3C(C#N)=C(C(F)(F)F)NC(C(F)(F)F)=C3C#N)cc12
B: CC1=C(C#N)C(c2ccc3[nH]ncc3c2)C(C#N)=C(C(F)(F)F)N1 (racemic)
Query block: Could you kindly indicate whether A or B has the higher Papp at 2 h, 2 μM value? Pick one and reply with its label.
Result block: A
(A: 34.8 ×10⁻⁶ cm/s, B: 20 ×10⁻⁶ cm/s)

====

# Test: Pharmacokinetics after peroral administration of test compounds
# Assay type: in vivo, rat
# Test Parameters: rat p.o.; fabs,calc=[F/Fmax,calc]*100
Outcome Measure: Fraction absorbed fabs, calc (%)

>>> endpoint_result("CC1=C(C#N)C(c2cc3c(C)n[nH]c3cc2F)C(C#N)=C(C(F)(F)F)N1 (single isomer, unassigned)")
59
>>> endpoint_result("N#CC1=C(C(F)F)NC(C(F)F)=C(C#N)C1c1cc2cn[nH]c2cc1F")
66

a: Cc1n[nH]c2cc(F)c(C3C(C#N)=C(C(F)F)NC(C(F)F)=C3C#N)cc12
b: CC1=C(C#N)C(c2ccc3[nH]nc(C)c3c2)C(C#N)=C(C(F)F)N1 (single isomer, unassigned)
Query block: // returns a or b , whichever has the lower Fraction absorbed fabs, calc Answer format: the label of the selected item.
Result block: a
(a: 67%, b: 131%)

====

# Test: Pharmacokinetics after intravenous administration of test compounds
# Assay type: in vivo, rat
# Test Parameters: rat i.v.; Fmax,calc=[1−CLblood/Qh]*100, Qh 4.2 L per h per kg
Outcome Measure: in vivo PK, rat i.v. Fmax, calc (%)

>>> endpoint_result("N#CC1=C(C(F)F)NC(C(F)F)=C(C#N)C1c1cc2cn[nH]c2cc1F")
95

P: CC1=C(C#N)C(c2ccc3[nH]nc(C)c3c2)C(C#N)=C(C(F)(F)F)N1 (single isomer, unassigned)
Q: CC1=C(C#N)C(c2ccc3[nH]nc(C)c3c2)C(C#N)=C(C(F)F)N1 (single isomer, unassigned)
R: Cc1n[nH]c2ccc(C3C(C#N)=C(C(F)F)NC(C(F)F)=C3C#N)cc12
Query block: Order the records, beginning with the lowest in vivo PK, rat i.v. Fmax, calc and ending with the highest. Give me the labels in the order the question wants.
Result block: Q, P, R
(Q: 25%, P: 60%, R: 96%)
